Exercise: for every item that follows, state its recorded Mean % WT Binding.
# target-under-test: human CD33 K288A (human, UniProt P20138 18-364)
# Sequence (P20138 18-364 K288A limits assumed): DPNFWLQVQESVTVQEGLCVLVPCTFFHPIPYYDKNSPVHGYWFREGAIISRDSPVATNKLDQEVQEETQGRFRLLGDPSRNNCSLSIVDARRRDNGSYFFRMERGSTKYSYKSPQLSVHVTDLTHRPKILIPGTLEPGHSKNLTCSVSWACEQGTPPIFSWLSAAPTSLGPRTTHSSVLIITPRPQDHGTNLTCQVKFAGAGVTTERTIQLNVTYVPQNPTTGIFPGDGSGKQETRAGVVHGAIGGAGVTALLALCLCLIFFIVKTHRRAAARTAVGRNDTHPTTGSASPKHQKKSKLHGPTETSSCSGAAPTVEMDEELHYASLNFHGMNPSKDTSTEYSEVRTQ
# test-summary: alanine scan, flow cytometry, HEK293-T;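 note: antibody binding to each alanine-substituted CD33 mutant expressed transiently in HEK293-T, read as fluorescence minus background, mean of duplicates, relative to wild-type CD33 set as 100%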
Quick note: give the figure in % WT binding, leave out the unit.

Query :: Would you mind telling me what Mean % WT Binding value was observed for Refmab #2 (antibody, V domains shown, The alanine scan used IgG or Fab) VH: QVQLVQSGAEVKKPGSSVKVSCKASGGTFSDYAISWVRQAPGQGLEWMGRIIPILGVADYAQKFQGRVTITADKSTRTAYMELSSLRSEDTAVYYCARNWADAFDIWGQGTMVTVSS VL: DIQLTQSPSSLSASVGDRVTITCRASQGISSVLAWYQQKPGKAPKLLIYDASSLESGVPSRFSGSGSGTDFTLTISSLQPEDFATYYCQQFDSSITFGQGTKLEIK ?
Result :: 108

Query :: Next: Refmab #3 (antibody, V domains shown, The alanine scan used IgG or Fab) VH: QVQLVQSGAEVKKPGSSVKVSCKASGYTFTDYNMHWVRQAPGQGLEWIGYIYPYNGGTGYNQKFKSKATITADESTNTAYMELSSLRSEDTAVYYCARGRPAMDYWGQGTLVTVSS VL: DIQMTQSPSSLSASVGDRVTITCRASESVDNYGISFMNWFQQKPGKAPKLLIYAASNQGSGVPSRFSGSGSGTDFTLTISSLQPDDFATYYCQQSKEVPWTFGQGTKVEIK
Result :: 107

Query :: Next: Refmab #4 (antibody, V domains shown, The alanine scan used IgG or Fab) VH: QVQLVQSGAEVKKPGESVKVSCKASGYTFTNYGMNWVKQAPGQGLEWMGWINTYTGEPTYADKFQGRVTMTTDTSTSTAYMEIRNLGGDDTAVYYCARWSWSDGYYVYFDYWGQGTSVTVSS VL: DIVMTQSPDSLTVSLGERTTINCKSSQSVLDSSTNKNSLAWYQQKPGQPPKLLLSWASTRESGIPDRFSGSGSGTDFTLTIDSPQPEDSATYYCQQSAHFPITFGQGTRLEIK
Result :: 100

Query :: Next: Refmab #1 (antibody, V domains shown, The alanine scan used IgG or Fab; also called hP67.6) VH: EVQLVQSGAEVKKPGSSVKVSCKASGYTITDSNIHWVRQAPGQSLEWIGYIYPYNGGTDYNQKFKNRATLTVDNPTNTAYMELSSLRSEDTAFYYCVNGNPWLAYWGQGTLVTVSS VL: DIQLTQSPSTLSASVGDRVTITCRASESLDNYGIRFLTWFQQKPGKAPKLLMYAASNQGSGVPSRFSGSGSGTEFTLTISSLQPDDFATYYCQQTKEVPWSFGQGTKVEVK
Result :: 112

Every entry's value here was drawn from patent US20260242735A1.
